Biological target: T1, Terbium (Tb) labeled-SNAP tagged ROBO2 expressed on HEK293 cells (Homo sapiens (Human), UniProt Q9HCK4 22-1378, terbium label on the SNAP tag)
T1 construct: also called Tb-labeled ROBO2 cells; ROBO2 expressing cells; not shown: SNAP tag
T1 sequence: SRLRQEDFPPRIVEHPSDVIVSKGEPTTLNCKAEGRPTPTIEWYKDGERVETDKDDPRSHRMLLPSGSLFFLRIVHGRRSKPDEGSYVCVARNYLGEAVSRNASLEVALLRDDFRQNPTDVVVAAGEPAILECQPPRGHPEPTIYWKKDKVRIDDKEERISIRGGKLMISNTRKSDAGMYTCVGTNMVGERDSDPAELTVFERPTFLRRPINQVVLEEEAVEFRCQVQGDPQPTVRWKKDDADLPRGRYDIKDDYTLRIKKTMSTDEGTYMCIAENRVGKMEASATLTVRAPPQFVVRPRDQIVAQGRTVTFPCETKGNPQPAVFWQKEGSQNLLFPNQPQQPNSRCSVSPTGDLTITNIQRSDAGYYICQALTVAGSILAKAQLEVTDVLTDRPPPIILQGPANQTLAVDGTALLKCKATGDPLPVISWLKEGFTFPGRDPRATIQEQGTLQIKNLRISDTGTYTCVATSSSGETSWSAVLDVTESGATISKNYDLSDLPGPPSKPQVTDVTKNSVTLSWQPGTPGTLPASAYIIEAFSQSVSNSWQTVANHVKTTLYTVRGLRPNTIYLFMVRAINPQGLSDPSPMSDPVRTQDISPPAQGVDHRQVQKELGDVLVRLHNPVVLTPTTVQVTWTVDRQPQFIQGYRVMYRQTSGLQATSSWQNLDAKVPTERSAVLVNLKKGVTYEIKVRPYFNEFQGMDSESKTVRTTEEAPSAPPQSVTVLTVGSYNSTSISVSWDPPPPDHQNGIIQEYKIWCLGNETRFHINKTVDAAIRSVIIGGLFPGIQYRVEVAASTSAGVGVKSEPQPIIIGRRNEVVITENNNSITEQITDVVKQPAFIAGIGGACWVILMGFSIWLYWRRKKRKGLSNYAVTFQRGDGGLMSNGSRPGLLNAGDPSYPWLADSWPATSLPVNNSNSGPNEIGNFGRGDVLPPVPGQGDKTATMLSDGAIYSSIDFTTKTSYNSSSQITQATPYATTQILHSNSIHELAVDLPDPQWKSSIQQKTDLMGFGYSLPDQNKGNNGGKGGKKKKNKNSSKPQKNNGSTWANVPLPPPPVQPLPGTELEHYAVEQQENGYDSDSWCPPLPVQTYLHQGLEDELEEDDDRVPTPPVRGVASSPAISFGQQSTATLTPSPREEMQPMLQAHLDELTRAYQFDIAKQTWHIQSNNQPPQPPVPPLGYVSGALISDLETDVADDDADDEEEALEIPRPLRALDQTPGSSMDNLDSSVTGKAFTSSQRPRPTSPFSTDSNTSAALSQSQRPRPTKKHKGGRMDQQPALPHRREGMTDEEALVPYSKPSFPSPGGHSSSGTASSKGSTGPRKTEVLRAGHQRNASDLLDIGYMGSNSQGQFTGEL
Assay: HTRF, 5 nM d2-SLIT2-N on Tb-SNAP-ROBO2 HEK293 cells, 1 nM antibody
Here, each record is paired with measured HTRF Ratio data.
Note: the reply should be a number with no unit written.

The following binders have reported results that may help.
binder | quantitative-readout
Abcs40 (antibody, human IgG1, kappa, V domains shown, chain-shuffled IgG) VH: EVQLVQSGAEVKKPGASVKVSCKASGYTFTGYYMHWVRQAPGQGLEWMGWINPKDGDTEFPQKFQGRVTMTRDTSITTAYMDLSRLRSDDTAVYYCARESGDDAFDIWGQGTMVTVSS VL: DIVMTQSPSSLSASVGDRVTITCRASQSISSYLNWYQQKPGKAPKLLIYAASSLQSGVPSRFSGSGSGTDFTLTISSLQPEDFATYYCQQSVGLFFGGGTKVEIKR | 3390
CTIR2-2 (antibody, human IgG1, kappa, V domains shown, CDR-shuffled IgG) VH: EVQLVQSGAEVKKPGASVKVSCKASGYTFTGYYMHWVRQAPGQGLEWMGWINPRSGATNFPQKFQGRVTMTRDTSITTAYMDLSRLRSDDTAVYYCARESGDDAFDIWGQGTMVTVSS VL: DIVMTQSPSSLSASVGDRVTITCRASQSISSYLNWYQQKPGKAPKLLIYAASSLQYGVPSRFSGSGSGTDFTLTISSLQPEDFATYYCQQSVGLSFGGGTKVEIKR | 4330

Now consider a different binder.
Ask: Given CTIR2-6 (antibody, human IgG1, kappa, V domains shown, CDR-shuffled IgG) VH: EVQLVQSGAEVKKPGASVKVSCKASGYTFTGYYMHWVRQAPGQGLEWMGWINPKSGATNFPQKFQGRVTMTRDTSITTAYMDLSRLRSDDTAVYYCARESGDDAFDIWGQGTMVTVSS VL: DIVMTQSPSSLSASVGDRVTITCRASQKISSYLNWYQQKPGKAPKLLIYAASSLQSGVPSRFSGSGSGTDFTLTISSLQPEDFATYYCQQSVGLFFGGGTKVEIKR , state its recorded HTRF Ratio.
Reply: 4160
